Consider the following compounds; for each one, report its Metabolic Stability Study M = mouse.
- assay.explanation: Metabolic stability in mouse liver microsomes
- Format: in vitro ADME
Your answer is read as µL/min/mg, so omit the unit and give the number.

Task: If you can, please state the reported Metabolic Stability Study M = mouse value of C[C@H](NC(=O)Nc1ccc(S(=O)(=O)Cc2ccc3c(c2)CNC3)cc1)c1ccccc1 [H1215] .
Output: 13.7

Task: Quick one: Metabolic Stability Study M = mouse of CC(NC(=O)Nc1ccc(S(=O)(=O)Cc2ccc3c(c2)CNC3)cc1)c1cccc(Cl)c1 (centres unmarked) [H1260] ?
Output: 24.7

Task: // lookup Metabolic Stability Study M = mouse for CN(C)C(C)(C)Cc1ccc(NS(=O)(=O)c2ccc(NC(=O)NCc3ccccc3)cc2)cc1 [H1009]
Output: 33.8

Task: Quick check: Metabolic Stability Study M = mouse of COc1cc(S(=O)(=O)Cc2ccc3c(c2)CN(C)C3)ccc1NC(=O)N(O)C(C)c1ccccc1 (centres unmarked) [H1518] ?
Output: 154.7

Task: Give its Metabolic Stability Study M = mouse value. Item: COc1cc(S(=O)(=O)Cc2ccc3c(c2)CCN(C)C3)ccc1NC(=O)N(O)C(C)c1cccc(Cl)c1Cl.O=C(O)C(F)(F)F (centres unmarked) [H1523]
Output: 155.5

Task: Which value of Metabolic Stability Study M = mouse has been reported for CC(NC(=O)N(O)c1ccc(S(=O)(=O)Nc2ccc3c(c2)CNC3)cc1)c1cccc2ccccc12 (centres unmarked) [H1166] in the records?
Output: 14.5

Task: So what's the measured Metabolic Stability Study M = mouse for this one? CC(NC(=O)Nc1ccc(S(=O)(=O)Cc2ccc3c(c2)CCN(C)C3)cc1)c1ccccc1F (centres unmarked) [H1342]
Output: 118.4

Task: Quick one: Metabolic Stability Study M = mouse for CC(NC(=O)Nc1ccc(S(=O)(=O)Cc2ccc3c(c2)CN(C)C3)cc1F)c1ccccc1 (centres unmarked) [H1317] ?
Output: 102.8

* * *

Can you tell me pEC50 for the items I'm about to list?
- target.under.test: recombinant human ghrelin receptor (HEK293/GRLN) (Homo sapiens, UniProt Q92847)
- Construct: expressed in transfected cells
- Sequence (Q92847 whole entry): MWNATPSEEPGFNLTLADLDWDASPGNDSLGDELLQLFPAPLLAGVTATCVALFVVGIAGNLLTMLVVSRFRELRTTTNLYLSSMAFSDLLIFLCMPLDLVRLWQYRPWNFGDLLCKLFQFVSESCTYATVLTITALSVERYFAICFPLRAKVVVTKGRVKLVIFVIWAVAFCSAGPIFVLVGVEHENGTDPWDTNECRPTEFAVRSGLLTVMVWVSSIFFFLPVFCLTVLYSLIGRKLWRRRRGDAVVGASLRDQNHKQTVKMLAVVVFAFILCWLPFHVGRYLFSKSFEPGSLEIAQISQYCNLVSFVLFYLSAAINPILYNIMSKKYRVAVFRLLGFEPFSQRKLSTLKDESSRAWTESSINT
- assay.explanation: Ghrelin inverse agonist potency (EC50) with IP-1 (IP-One HTRF) assay
- Format: cell-based
- assay.context: ghrelin inverse agonist potency, IP-1 assay; read-out: Activity EC50
# reply with the number alone; pEC50 is -log10 of concentration in mol/L

Task: Recorded pEC50 for COC(=O)c1cc(S(=O)(=O)Cc2ccc3c(c2)CN(C)C3)ccc1NC(=O)NC(C)c1ccccc1 (stereo not shown) , please?
Output: 7.77

Task: For the compound shown here, COC(=O)c1cc(NC(=O)NC(C)c2ccccc2)ccc1S(=O)(=O)Cc1ccc2c(c1)CNC2 (stereo not shown) , give the reported pEC50.
Output: 7.93

Task: Look up pEC50: CC(c1ccccc1F)N(O)C(=O)Nc1ccc(S(=O)(=O)Cc2ccc3c(c2)CNC3)cc1.Cl (stereo not shown)
Output: 8.44

Task: # query: pEC50 of entry CC(NC(=O)Nc1ccc(S(=O)(=O)Cc2ccc3c(c2)CN(C)C3)c(-c2ncco2)c1)c1ccccc1 (stereo not shown)
Output: 7.52

* * *

Kindly state Metabolic Stability Study H = human for each of the entries shown.
- assay.explanation: Metabolic stability in human liver microsomes
- Assay type: in vitro ADME
Could you give me the number in µL/min/mg? Just the number is fine.

Task: Fill in: Metabolic Stability Study H = human of C[C@@H](NC(=O)Nc1ccc(S(=O)(=O)Cc2ccc3c(c2)C(F)CNC3)cc1)c1cccc(Cl)c1Cl (some centres unmarked) [H1537] is ___
Output: 43.2

Task: For the compound COc1cc(S(=O)(=O)Cc2ccc3c(c2)CNC3)ccc1NC(=O)N(O)C(C)c1ccccc1 (centres unmarked) [H1517] , what Metabolic Stability Study H = human is on record?
Output: 25.6

Task: Request the reported Metabolic Stability Study H = human associated with COc1cc(S(=O)(=O)Cc2ccc3c(c2)CNC3)ccc1NC(=O)NC(C)c1ccccc1OC (centres unmarked) [H1393]
Output: 55.5

Task: # Metabolic Stability Study H = human lookup, item COc1ccc([C@H](C)NC(=O)Nc2ccc(S(=O)(=O)Nc3ccc4c(c3)CCN(C)C4)cc2)c(Cl)c1Cl [H1017]
Output: 11.5

Task: Could you share which Metabolic Stability Study H = human value was measured for COc1cc(S(=O)(=O)Cc2ccc3c(c2)CNC3)ccc1NC(=O)NC(C)c1ccccc1F.O=C(O)C(F)(F)F (centres unmarked) [H1420] ?
Output: 17.4

Task: GET /values?readout=Metabolic Stability Study H = human&item= CC(NC(=O)Nc1ccc(S(=O)(=O)Cc2ccc3c(c2)CC(C)N(C)C3)cc1)c1ccccc1 (centres unmarked) [H1407]
Output: 144.4

Task: Data request, read-out Metabolic Stability Study H = human, for CN(C)C(C)(C)Cc1ccc(NS(=O)(=O)c2ccc(NC(=O)NCc3ccccc3)cc2)cc1 [H1009]
Output: 13.2

Task: Request the reported Metabolic Stability Study H = human associated with COc1cc(NC(=O)NC(C)c2ccccc2)ccc1S(=O)(=O)Cc1ccc2c(c1)CN(C)C2 (centres unmarked) [H1462]
Output: 76.1
